Measured inhibition, listed per entry for reference.
target-desc: Serine/threonine-protein kinase PAK 5 (Homo sapiens);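 further: values are mean percent inhibition of PAK5 from a kinase inhibitor set screen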
details: at 0.1 µM
Your answer is read as %, so omit the unit and give the number.

[[record]]
molecule_smiles = "Cc1ccc(Nc2ccnc(Nc3cccc(C(N)=O)c3)n2)cc1O"
endpoint = "inhibition"
endpoint_unit = "%"
reading = 5.17

[[record]]
molecule_smiles = "CN(C)c1cc2c(Nc3ccc4c(cnn4Cc4ccccc4)c3)ncnc2cn1"
endpoint = "inhibition"
endpoint_unit = "%"
reading = -1.52

[[record]]
molecule_smiles = "COc1cccc(-n2ncc3c(N/N=C/c4ccc(C)cc4)ncnc32)c1"
endpoint = "inhibition"
endpoint_unit = "%"
reading = 6.1

[[record]]
molecule_smiles = "Cc1cc(-c2ccccn2)cc(C)c1/C=C/c1cncc(-c2nn[nH]n2)c1"
endpoint = "inhibition"
endpoint_unit = "%"
reading = 1.64

[[record]]
molecule_smiles = "Oc1cccc(-c2nc(-c3ccccc3)[nH]c2-c2ccncc2)c1"
endpoint = "inhibition"
endpoint_unit = "%"
reading = 11.4


Which inhibition value is on record for "c1ccc(Cc2nc3ccc(Nc4ncnc5ccccc45)cc3[nH]2)cc1" ? 5.6

Which inhibition value is on record for "Cc1ccc2c(c1)/C(=N/Nc1ccc(S(N)(=O)=O)cc1)C(=O)N2" ? -8.51

Which inhibition value is on record for "OCc1ccc(-c2nc(-c3ccccn3)c(-c3ccc4c(c3)OCO4)[nH]2)cc1" ? 1.77

Which inhibition value is on record for "CCS(=O)(=O)c1ccc(OC)c(Nc2nccc(N(C)c3ccc4c(C)n[nH]c4c3)n2)c1" ? 1.92

Which inhibition value is on record for "C[C@@H](Oc1cc(-n2cnc3ccc(OC[C@@H](O)CO)cc32)sc1C(N)=O)c1ccccc1Cl" ? -7.17

====

target-desc: Serine/threonine-protein kinase Nek9 (Homo sapiens) (UniProt Q8TD19);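 further: each value is a mean percent inhibition of NEK9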
Sequence (Q8TD19 whole entry): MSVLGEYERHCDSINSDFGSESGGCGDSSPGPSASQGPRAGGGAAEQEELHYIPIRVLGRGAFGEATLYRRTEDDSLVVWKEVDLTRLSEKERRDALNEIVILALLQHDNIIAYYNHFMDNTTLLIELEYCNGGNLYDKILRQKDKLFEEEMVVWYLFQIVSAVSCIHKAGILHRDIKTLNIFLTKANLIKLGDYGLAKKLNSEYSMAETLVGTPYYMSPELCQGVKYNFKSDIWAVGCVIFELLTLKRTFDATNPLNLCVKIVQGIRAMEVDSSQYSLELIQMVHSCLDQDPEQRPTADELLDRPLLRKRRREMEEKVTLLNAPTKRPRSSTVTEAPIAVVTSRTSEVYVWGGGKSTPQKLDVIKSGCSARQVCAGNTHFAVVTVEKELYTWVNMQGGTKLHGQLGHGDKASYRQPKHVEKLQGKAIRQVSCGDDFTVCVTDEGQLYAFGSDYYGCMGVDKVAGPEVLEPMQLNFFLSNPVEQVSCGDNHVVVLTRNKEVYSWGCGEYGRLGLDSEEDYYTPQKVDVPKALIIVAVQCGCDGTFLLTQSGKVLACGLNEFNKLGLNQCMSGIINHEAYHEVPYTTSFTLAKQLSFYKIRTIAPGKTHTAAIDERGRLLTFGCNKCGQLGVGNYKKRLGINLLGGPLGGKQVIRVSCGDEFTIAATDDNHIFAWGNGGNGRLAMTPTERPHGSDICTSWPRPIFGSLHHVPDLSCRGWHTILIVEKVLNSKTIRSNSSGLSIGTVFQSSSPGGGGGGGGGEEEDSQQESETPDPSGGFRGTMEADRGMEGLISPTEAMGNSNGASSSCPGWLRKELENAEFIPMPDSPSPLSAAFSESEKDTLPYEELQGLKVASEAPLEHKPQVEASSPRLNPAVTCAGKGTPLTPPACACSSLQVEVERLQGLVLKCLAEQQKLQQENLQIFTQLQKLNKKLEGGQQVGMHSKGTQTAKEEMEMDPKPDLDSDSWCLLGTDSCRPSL
details: at 1 µM
Measured inhibition, listed per entry for reference.
Your answer is read as %, so omit the unit and give the number.

Which inhibition value is on record for "CCn1c(-c2nonc2N)nc2c(C#CC(C)(C)O)nc(OCCNC)cc21" ? 7.49

Which inhibition value is on record for "COc1cc2ncnc(Nc3ccc4c(cnn4Cc4ccccc4)c3)c2cc1OC" ? 8.26

Which inhibition value is on record for "NC(=O)c1sc(-n2cnc3ccccc32)cc1OCc1ccccc1Br" ? 23.5

Which inhibition value is on record for "c1ccc(Cc2nc3ccc(Nc4ncnc5ccccc45)cc3[nH]2)cc1" ? 1.93

Which inhibition value is on record for "O=C1Nc2ccccc2/C1=C/Nc1ccc2[nH]c(=O)[nH]c2c1" ? 15.6

====

Measured inhibition, listed per entry for reference.
target-desc: Sphingosine kinase 1 (Homo sapiens) (UniProt Q9NYA1);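 further: mean percent inhibition of SPHK1 activity, measured within the GSK PKIS screening panel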
Sequence (Q9NYA1 whole entry): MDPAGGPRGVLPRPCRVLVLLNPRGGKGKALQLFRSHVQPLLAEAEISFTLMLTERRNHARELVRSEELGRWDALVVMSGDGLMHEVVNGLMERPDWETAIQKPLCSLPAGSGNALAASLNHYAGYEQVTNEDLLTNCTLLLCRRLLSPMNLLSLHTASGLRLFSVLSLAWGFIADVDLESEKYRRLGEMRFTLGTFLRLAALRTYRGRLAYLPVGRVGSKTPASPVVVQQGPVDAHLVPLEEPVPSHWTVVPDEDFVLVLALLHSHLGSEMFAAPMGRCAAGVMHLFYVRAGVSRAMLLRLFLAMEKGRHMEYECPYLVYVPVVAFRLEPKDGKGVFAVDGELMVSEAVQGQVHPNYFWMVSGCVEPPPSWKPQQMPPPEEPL
details: at 0.1 µM
Your answer is read as %, so omit the unit and give the number.

Below, 4 compounds whose answers are already recorded.
[[record]]
molecule_smiles = "Nc1nccc(-c2c(-c3ccc(F)cc3)nn3cc(C(F)(F)F)ccc23)n1"
target_desc = "Sphingosine kinase 1 (Homo sapiens) (UniProt Q9NYA1)"
endpoint_unit = "%"
reading = 4.09

[[record]]
molecule_smiles = "NS(=O)(=O)c1cccc(-c2cc3ccncc3cc2OCc2ccccc2)c1"
target_desc = "Sphingosine kinase 1 (Homo sapiens) (UniProt Q9NYA1)"
endpoint_unit = "%"
reading = 0.1

[[record]]
molecule_smiles = "COc1ccc(-c2nn3ncccc3c2-c2ccnc(Nc3cccc(C(F)(F)F)c3)n2)cc1"
target_desc = "Sphingosine kinase 1 (Homo sapiens) (UniProt Q9NYA1)"
endpoint_unit = "%"
reading = 0.03

[[record]]
molecule_smiles = "CN1CCN(C(=O)c2ccc(NC(=O)Nc3ccc(N(C)c4ccnc(Nc5ccc(CS(C)(=O)=O)cc5)n4)cc3)cc2)CC1"
target_desc = "Sphingosine kinase 1 (Homo sapiens) (UniProt Q9NYA1)"
endpoint_unit = "%"
reading = 0


Which inhibition value is on record for "Cc1cc(-c2ccccn2)cc(C)c1/C=C/c1cncc(-c2nn[nH]n2)c1" ? 0.97
